# tgt: human CGRP receptor (human, UniProt Q16602 23-461; O60894 27-148)
# Sequence (Q16602 23-461, chain 1 of 2): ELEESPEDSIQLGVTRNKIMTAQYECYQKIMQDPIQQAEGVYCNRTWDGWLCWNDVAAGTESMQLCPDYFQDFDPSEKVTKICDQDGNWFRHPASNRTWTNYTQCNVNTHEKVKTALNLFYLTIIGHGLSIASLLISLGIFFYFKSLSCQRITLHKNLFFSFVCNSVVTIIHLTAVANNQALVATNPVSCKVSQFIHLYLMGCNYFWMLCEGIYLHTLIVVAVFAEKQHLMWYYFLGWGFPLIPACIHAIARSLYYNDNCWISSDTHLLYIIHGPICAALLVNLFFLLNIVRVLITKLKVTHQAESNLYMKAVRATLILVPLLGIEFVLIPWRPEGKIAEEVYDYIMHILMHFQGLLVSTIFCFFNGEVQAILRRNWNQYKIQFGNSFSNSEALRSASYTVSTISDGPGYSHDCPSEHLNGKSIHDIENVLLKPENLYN
# Sequence (O60894 27-148, chain 2 of 2): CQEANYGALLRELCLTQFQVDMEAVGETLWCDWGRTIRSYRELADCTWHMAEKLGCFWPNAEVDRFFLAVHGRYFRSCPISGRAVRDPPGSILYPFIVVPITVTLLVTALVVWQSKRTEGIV
# experimentDescription: cell-based or functional assay
One threshold, 80%, splits the recorded % Relative Potency by Cell-Based Bioassay values: lower ones are Met, equal or higher ones are Not met.

Example cases with answers are listed next.
Erenumab CEX-HPLC Basic Fraction F8 (antibody, human IgG2, lambda, V domains shown, disulfide isoforms by RP-HPLC: 2.0% IgG2-B, 23.3% IgG2-A/B, 73.3% IgG2-A) VH: QVQLVESGGGVVQPGRSLRLSCAASGFTFSSFGMHWVRQAPGKGLEWVAVISFDGSIKYSVDSVKGRFTISRDNSKNTLFLQMNSLRAEDTAVYYCARDRLNYYDSSGYYHYKYYGMAVWGQGTTVTVSS VL: QSVLTQPPSVSAAPGQKVTISCSGSSSNIGNNYVSWYQQLPGTAPKLLIYDNNKRPSGIPDRFSGSKSGTSTTLGITGLQTGDEADYYCGTWDSRLSAVVFGGGTKLTVLG :: Not met
Erenumab CEX-HPLC Basic Fraction F9 (antibody, human IgG2, lambda, V domains shown, disulfide isoforms by RP-HPLC: 11.0% IgG2-B, 31.3% IgG2-A/B, 55.9% IgG2-A) VH: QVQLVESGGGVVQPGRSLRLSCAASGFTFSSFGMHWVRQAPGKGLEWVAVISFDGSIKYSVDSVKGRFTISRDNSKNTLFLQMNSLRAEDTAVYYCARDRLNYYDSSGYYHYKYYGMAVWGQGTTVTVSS VL: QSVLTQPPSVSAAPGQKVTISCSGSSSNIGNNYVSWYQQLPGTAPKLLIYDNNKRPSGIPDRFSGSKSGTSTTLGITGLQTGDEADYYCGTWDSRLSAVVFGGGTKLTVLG :: Not met
Erenumab CEX-HPLC Acidic Fraction F2 (antibody, human IgG2, lambda, V domains shown, disulfide isoforms by RP-HPLC: 21.4% IgG2-B, 40.4% IgG2-A/B, 35.8% IgG2-A) VH: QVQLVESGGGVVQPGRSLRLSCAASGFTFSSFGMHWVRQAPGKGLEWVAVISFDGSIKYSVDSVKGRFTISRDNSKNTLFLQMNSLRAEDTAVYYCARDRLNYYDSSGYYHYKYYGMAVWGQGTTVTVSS VL: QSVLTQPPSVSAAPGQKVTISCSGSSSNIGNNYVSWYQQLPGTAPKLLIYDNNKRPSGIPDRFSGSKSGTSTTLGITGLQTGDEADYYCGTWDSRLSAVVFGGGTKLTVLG :: Met
Erenumab CEX-HPLC Main Fraction F6 (antibody, human IgG2, lambda, V domains shown, disulfide isoforms by RP-HPLC: 3.9% IgG2-B, 27.8% IgG2-A/B, 65.5% IgG2-A) VH: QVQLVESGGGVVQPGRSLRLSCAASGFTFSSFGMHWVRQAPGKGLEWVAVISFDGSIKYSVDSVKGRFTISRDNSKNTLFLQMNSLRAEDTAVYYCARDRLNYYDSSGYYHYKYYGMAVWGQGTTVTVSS VL: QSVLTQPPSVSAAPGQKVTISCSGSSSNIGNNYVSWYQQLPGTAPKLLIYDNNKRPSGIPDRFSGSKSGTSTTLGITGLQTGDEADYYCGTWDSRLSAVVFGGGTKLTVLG :: Not met
Erenumab CEX-HPLC Basic Fraction F7 (antibody, human IgG2, lambda, V domains shown, disulfide isoforms by RP-HPLC: 3.9% IgG2-B, 28.6% IgG2-A/B, 65.4% IgG2-A) VH: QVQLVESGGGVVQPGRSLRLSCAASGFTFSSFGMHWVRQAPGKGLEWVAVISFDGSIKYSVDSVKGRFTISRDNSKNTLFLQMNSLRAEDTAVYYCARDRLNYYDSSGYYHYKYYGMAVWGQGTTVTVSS VL: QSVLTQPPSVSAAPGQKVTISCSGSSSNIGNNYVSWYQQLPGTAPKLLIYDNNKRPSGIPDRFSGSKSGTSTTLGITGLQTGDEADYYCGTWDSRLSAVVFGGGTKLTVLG :: Not met
Erenumab CEX-HPLC Main Fraction F5 (antibody, human IgG2, lambda, V domains shown, disulfide isoforms by RP-HPLC: 2.9% IgG2-B, 33.9% IgG2-A/B, 62.4% IgG2-A) VH: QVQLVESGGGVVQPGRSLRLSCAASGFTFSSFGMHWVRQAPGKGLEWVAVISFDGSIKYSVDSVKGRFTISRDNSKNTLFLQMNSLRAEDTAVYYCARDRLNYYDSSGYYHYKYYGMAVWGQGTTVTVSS VL: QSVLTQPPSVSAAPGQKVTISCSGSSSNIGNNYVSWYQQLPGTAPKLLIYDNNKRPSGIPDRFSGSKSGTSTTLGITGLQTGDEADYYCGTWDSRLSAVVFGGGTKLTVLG :: Not met

Read the next record carefully.
Query :: Decide: % Relative Potency by Cell-Based Bioassay of Erenumab CEX-HPLC Acidic Fraction F3 (antibody, human IgG2, lambda, V domains shown, disulfide isoforms by RP-HPLC: 11.2% IgG2-B, 55.1% IgG2-A/B, 32.4% IgG2-A) VH: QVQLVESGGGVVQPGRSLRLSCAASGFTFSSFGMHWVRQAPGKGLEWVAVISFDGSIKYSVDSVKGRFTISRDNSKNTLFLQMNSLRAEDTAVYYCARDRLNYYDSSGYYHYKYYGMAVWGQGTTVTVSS VL: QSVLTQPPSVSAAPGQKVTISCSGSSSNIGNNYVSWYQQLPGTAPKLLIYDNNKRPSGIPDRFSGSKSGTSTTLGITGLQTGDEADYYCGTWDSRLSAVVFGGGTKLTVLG strictly below 80%?
Result :: Met
